test system: A498 renal; experiment: NCI-60 one-dose screen, 48 h; conditions: 10 µM unless noted
This is part of a sample that, as a whole, favours compounds with a hit. Of some 83,000 tested, about 20% had one in any assay. Calls of active or inactive are those of the source. The calls were made as follows: active = growth percent below 10; inactive = the rest.
Outcomes: true = active, false = inactive

molecule	label.class
O=Cc1ccccc1C(=O)O	false
O=C1OC2(c3ccccc31)c1ccccc1-c1ccccc12	false
Nc1ccc2c(c1Br)Cc1ccccc1-2	false
COc1ccc(-n2cnc3cc(C(=O)N4CCCCC4)ccc32)cc1	false
Cn1c(N2N=C(c3ccc(Cl)cc3)CC2c2ccccc2)nc(-c2ccccc2)c(C#N)c1=O (configuration not stated)	false
COc1cc(/C=C/C(=O)c2c(C)n([O-])c3ccc(Cl)cc3[n+]2=O)cc(OC)c1OC	false
Cn1c(=O)c2[nH]c(=S)n(Cc3ccccc3)c2n(C)c1=O	false
CCOC(=O)c1sc(NC(=O)COc2cccc(/C=C3\CCc4cc(OC)ccc4C3=O)c2)nc1C	false
COc1cnc2c(c1)C(=O)c1c-2n(CCCn2ccnc2)c(=O)c2cc(F)ccc12	true
O=C1/C(=C/c2ccccc2O)C(=S)SN1Cc1ccco1	false
O=C(Nc1cccc(Cl)c1)Nc1cccc(Cl)c1	false
CC(=O)[C@H]1CC[C@H]2[C@@H]3C[C@H](C)C4=CC(=O)CC[C@]4(C)[C@H]3C(=O)C[C@]12C	false
CCN(CC)CCSc1ncnc2c1cnn2-c1ccc(S(N)(=O)=O)cc1	false
COc1cccc(CCN2C(=O)CCC3=C2CCC3=O)c1	false
CCCCCN1C(=O)CCC1=O	false
CCN(CC)c1ccc(/C=C/C(=O)c2cccc(NS(C)(=O)=O)c2)cc1	false
O=C(NC1CCS(=O)(=O)C1)c1ccc(C(=O)c2ccccc2)cc1 (configuration not stated)	false
CC[C@H]1CN2CCc3cc(OC)c(OC)cc3C2C[C@@H]1CC1NCCc2cc(OC)c(OC)cc21 (some centres not stated)	true
O=C1OC(Oc2ccccc2)(c2ccccc2)c2ccccc21 (configuration not stated)	false
NS(=O)(=O)c1ccc(-n2ncc3c(NC4CCCCC4)ncnc32)cc1	false
Cc1ccc(C2=Nc3c(ccc4c(C)c(C)c(=O)oc34)OC2)cc1	false
Nc1ccc(N=Nc2ccccc2)cc1[N+](=O)[O-]	false
N#Cc1ccccc1C#Cc1ccccc1C#Cc1ccc(OCCCCCCOc2ccc(C#Cc3ccccc3C#Cc3ccccc3C#N)cc2)cc1	false
CCCc1n(Cc2ccc3ccccc3c2)cc[n+]1Cc1ccc2ccccc2c1	true
COc1ccc(N2CCN(CC(=O)N3CCN(c4nnc(-c5ccccc5)c(-c5ccccc5)n4)CC3)CC2)cc1	false
COc1ccc(NC(=O)c2ccc(-c3ccccc3)cc2)c(C(N)=O)c1	false
O=c1[nH]cc(Nc2cc(Cl)c3nonc3c2[N+](=O)[O-])c(=O)[nH]1	false
CC[C@@H](C)/C=C(C)/C=C/C(O)=C1\C(=O)N[C@@H](Cc2ccc(OC(=O)[C@@](OC)(c3ccccc3)C(F)(F)F)cc2)C1=O	false
CCOC(=O)c1cnc2c(C)cc(C)cc2c1NCCCN(C)C	false
NS(=O)(=O)c1ccc(-n2nc(-c3ccc(Br)cc3)ccc2=O)cc1	false
COc1ccc(CNC(=O)c2c(C)n([O-])c3ccccc3[n+]2=O)cc1	false
CC(=O)O[C@H]1CC[C@@]2(C)C(=CC[C@@H]3[C@@H]2CC[C@]2(C)C(c4cccnc4)=CC[C@@H]32)C1	false
C[C@@H]1C[C@@H]([C@@H](CC2CC(=O)NC(=O)C2)OC(=O)CC(=O)c2ccccc2)C(=O)[C@@H](C)C1	false
CN1CCN(CCCOc2ccc3ncnc(Nc4ccc(OCc5cccc(F)c5)c(Cl)c4)c3c2)CC1	false
O=c1c2c(=NCCCN3CCCC3)cc3c(=O)n(CCCN4CCCC4)c(=O)c4c(NCCCN5CCCC5)cc(c(O)n1CCCN1CCCC1)c2c4-3	true
COc1cc(-c2nc3nc4sc(C)c(C)c4c(=O)n3[nH]2)cc(OC)c1OC	false
O=C(COc1ccc(/C=C2\Oc3ccc4ccccc4c3C2=O)cc1)c1ccc([N+](=O)[O-])cc1	false
